test: viability of PTEN-null HCT116 cells – cell-based, HCT116 clonal line, CellTiter-Glo, pilot screen (AID 824); conditions: HCT116 PTEN-deleted viability, 60 h, at 10 µM, active compounds read low;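 note: 0% = 20 µM Hyamine control and 100% = vehicle cell control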
Results filed as inconclusive are left out.
This listing pairs compounds with measured viability.
Quick note: give the figure in %, leave out the unit.

Consider the following illustrative entries.
> print(dat)
                                   compound  result
1  O=C(CSc1nnc(C2COc3ccccc3O2)o1)N1CCCCC1 (centres undefined)     105
2  CCOC(=O)c1oc2c(CN3CCN(C)CC3)c(O)ccc2c(=O)c1-c1ccccc1OC      94
3  COc1ccc(OCc2nc(C#N)c(N3CCN(c4ccc(OC)cc4)CC3)o2)cc1    73.5
4  Cn1c(=O)c2cc(S(=O)(=O)NC(Cc3ccccc3)C(=O)NCc3ccco3)ccc2n(C)c1=O (centres undefined)      92
5  CN1CCN(c2nc3c(c(=O)[nH]c(=O)n3C)n2CCSc2nc3ccccc3s2)CC1    91.9
6        CCc1cccc(NC(=O)Cn2cc3c(n2)CCCC3)c1    97.2
7  Cc1cccc(C(=O)N2CCN(C(=O)c3cccc(C)c3)C(C)C2)c1 (centres undefined)    96.2
8  CCOC(=O)N1CCN(C(=O)c2ccc(CS(=O)(=O)c3c(Cl)cccc3Cl)o2)CC1     100

Next compound, please.
QUERY: Requested field: viability. Item: `C=CCOc1ccc(/C(CC)=N/O)c(OC)c1`
RESULT: 105
